# subject-of-test: recombinant human Bcl-2-G101V protein (Homo sapiens (Human), UniProt P10415, G101V)
# assay-method-text: Bcl-2-G101V TR-FRET Assay
# Type: binding
# settings: Bcl-2 G101V mutant, TR-FRET; read-out: Biochemical assay (IC50, nM) Bcl-2 G101V
Here, each record is paired with measured IC50 data.
Value expressed in nM; do not type the unit.

{"compound": "COc1ccc(CN2CCN(C3CC4(CCN(c5ccc(C(=O)NS(=O)(=O)c6ccc(NC[C@H]7CC[C@](C)(O)CC7)c([N+](=O)[O-])c6)c(Oc6cnc7[nH]ccc7c6)c5)CC4)C3)[C@@H](c3ccccc3C(C)C)C2)cc1OC [Example 81b]", "subject-of-test": "recombinant human Bcl-2-G101V protein (Homo sapiens (Human), UniProt P10415, G101V)", "IC50 (nM)": 2}
{"compound": "COc1cc(CN2CCN(C3CC4(C3)CN(c3ccc(C(=O)NS(=O)(=O)c5ccc(NC[C@H]6CC[C@](C)(O)CC6)c([N+](=O)[O-])c5)c(Oc5cnc6[nH]ccc6c5)c3)C4)[C@H](c3ccccc3C(C)C)C2)cc(F)c1OC", "subject-of-test": "recombinant human Bcl-2-G101V protein (Homo sapiens (Human), UniProt P10415, G101V)", "IC50 (nM)": 0.32}
{"compound": "CC(C)c1ccccc1[C@@H]1CN(Cc2cccc3c2OCC(C)(C)O3)CCN1C1CC2(C1)CN(c1ccc(C(=O)NS(=O)(=O)c3ccc(NC[C@H]4CC[C@](C)(O)CC4)c([N+](=O)[O-])c3)c(Oc3cnc4[nH]cc(F)c4c3)c1)C2", "subject-of-test": "recombinant human Bcl-2-G101V protein (Homo sapiens (Human), UniProt P10415, G101V)", "IC50 (nM)": 0.99}

Task item: Which measured IC50 value corresponds to COc1cc(CN2CCN(C3CC4(C3)CN(c3ccc(C(=O)NS(=O)(=O)c5ccc(NC[C@H]6CC[C@](C)(O)CC6)c([N+](=O)[O-])c5)c(Oc5cnc6[nH]ccc6c5)c3)C4)[C@H](c3ccccc3C(C)C)C2)ccc1C1CCC1 ?
Reply: 3.3

###

# subject-of-test: Recombinant human Bcl-2 protein (Homo sapiens (Human))
# assay-method-text: Bcl-2 TR-FRET Assay
# Format: binding
# settings: Bcl-2 wild type, TR-FRET; read-out: Biochemical assay (IC50, nM) Bcl-2 WT
Parameter: IC50. Scope: all listed entries.
Phrase the answer as number then unit, nothing more needed.

{"compound": "CCc1ccc(CN2CCN(C3CC4(CCN(c5ccc(C(=O)NS(=O)(=O)c6ccc(NC[C@H]7CC[C@](C)(O)CC7)c([N+](=O)[O-])c6)c(Oc6cnc7[nH]ccc7c6)c5)CC4)C3)C(c3ccccc3C(C)C)C2)cc1 (some centres unmarked)", "subject-of-test": "Recombinant human Bcl-2 protein (Homo sapiens (Human))", "IC50": "0.6 nM"}

Task item: Form field: reported IC50 of CC(C)c1ccccc1C1CN(Cc2ccc(C3CC3)cc2)CCN1C1CC2(CCN(c3ccc(C(=O)NS(=O)(=O)c4ccc(NC[C@H]5CC[C@](C)(O)CC5)c([N+](=O)[O-])c4)c(Oc4cnc5[nH]cc(F)c5c4)c3)CC2)C1 (some centres unmarked)
Reply: 1.2 nM

###

Consider the following compounds and their measured IC50 readings.
# subject-of-test: Recombinant human Bcl-2 protein (Homo sapiens (Human), UniProt P10415)
# assay-method-text: Bcl-2 TR-FRET Assay
# Type: binding
# settings: Bcl-2 wild type, TR-FRET; read-out: Biochemical assay (IC50, nM) Bcl-2 WT
Note: unit nM is implicit; provide only the numeric part.

{"compound": "COc1cc(CN2CCN(C3CC4(CCN(c5ccc(C(=O)NS(=O)(=O)c6ccc(NC[C@H]7CC[C@](C)(O)CC7)c([N+](=O)[O-])c6)c(Oc6cnc7[nH]cc(F)c7c6)c5)CC4)C3)[C@H](c3ccccc3C(C)C)C2)cc2c1OCC2(C)C", "IC50 [nM]": 0.26}

The record that follows has no IC50 shown yet.
Task item: For the compound COc1ccc(CN2CCN(C3CC4(CCN(c5ccc(C(=O)NS(=O)(=O)c6ccc(NC[C@H]7CC[C@](C)(O)CC7)c([N+](=O)[O-])c6)c(Oc6cnc7[nH]ccc7c6)c5)CC4)C3)C(c3ccccc3C(C)C)C2)c2c1OCCO2 (some centres unmarked) , what IC50 is on record?
Reply: 0.052
